This listing pairs molecules with measured Selectivity index P. aeruginosa (CCUG #59347).
System: P. aeruginosa (CCUG #59347)
Test details: Antibacterial activity against isolates (Omnilog, Biolog redox dye)
Type: cell-based, Pseudomonas aeruginosa
Settings: SI = ((EC50 MCF-7 + EC50 HepG2)/2)/EC50 bacterial strain

| Sample smiles | Reported value |
| --- | --- |
| N=C(N)Nc1ccc(-c2ccc(C(=O)N3CCc4cc(NC(=N)N)ccc43)o2)cc1 | 11.4 |
| N=C(N)Nc1ccc(-c2ccc(-c3ccc(NC(=N)N)cc3Cl)o2)c(Cl)c1 | 7.3 |
| N=C(N)Nc1ccc(-c2ccc(C(=O)N3CCc4cc(NC(=N)N)ccc43)o2)c(Cl)c1 | 11.5 |
| N=C(N)Nc1ccc(-c2ccc(-c3ccc(NC(=N)N)cc3)o2)cc1 | 24.1 |
| Cc1cc(NC(=N)N)ccc1-c1ccc(-c2ccc(NC(=N)N)cc2C)o1 | 1.1 |

Field: next molecule
I would be grateful if you could share the reported Selectivity index P. aeruginosa (CCUG #59347) for `COc1cc(NC(=N)N)ccc1-c1ccc(-c2ccc(NC(=N)N)cc2OC)o1` .
2.6

###

Test system: P. aeruginosa (CCUG #59347)
Test details: Antibacterial activity against isolates (Omnilog, Biolog redox dye)
Assay type: cell-based, Pseudomonas aeruginosa
Settings: Pseudomonas aeruginosa, CCUG59347; ca-MH broth, 24 h, 37 °C
Measure name: pEC50
Units for pEC50: none; it is -log10 of a concentration expressed in mol/L.

# count of solved cases: 3
| Compound | pEC50 |
| --- | --- |
| Cc1cc(NC(=N)N)ccc1-c1ccc(-c2ccc(NC(=N)N)cc2C)o1 | 4.18 |
| CO/N=C(\C(=O)N[C@@H]1C(=O)N2C(C(=O)O)=C(COC(C)=O)CS[C@H]12)c1csc(N)n1 [CTX, Cefotaxime, reference compound] | 2.82 |
| N=C(N)Nc1ccc(-c2ccc(-c3ccc(NC(=N)N)cc3Cl)o2)c(Cl)c1 | 5.28 |

Field: next compound
I would be grateful if you could share the reported pEC50 for `N=C(N)Nc1ccc(-c2ccc(C(=O)N3CCc4cc(NC(=N)N)ccc43)o2)cc1` .
4.77

###

Test details: Cytotoxicity assay (PrestoBlue) MCF-7
Type: cell-based
Settings: human, MCF-7 cells (breast cancer cell line), 24 h incubation
Measure name: log10(EC50 at 24 h) (log10 of the value in µM)
Could you please treat all values as log10 of EC50 at 24 h in µM?

I would be grateful if you could share the reported log10(EC50 at 24 h) for N=C(N)Nc1ccc(-c2ccc(C(=O)N3CCc4cc(NC(=N)N)ccc43)o2)cc1 [Compound 17] .
2.17

I would be grateful if you could share the reported log10(EC50 at 24 h) for Nc1c(Nc2ccc(-c3ccc(-c4ccc(Nc5c(N)c(=O)c5=O)cc4Cl)o3)c(Cl)c2)c(=O)c1=O [Compound 11] .
2.71

###

A set of compounds tested on Enterobacter hormaechei CCUG # 58962, with measured MIC:
Quick note: unit goes after the number.

| Compound | Measure name | Reported value |
| --- | --- | --- |
| C[C@@H](O)[C@H]1C(=O)N2C(C(=O)O)=C(S[C@@H]3CN[C@H](C(=O)N(C)C)C3)[C@H](C)[C@H]12 | MIC | 0.3 µM |
| O=C(O)c1cn(C2CC2)c2cc(N3CCNCC3)c(F)cc2c1=O | MIC | 0.1 µM |
| CC1(C)S[C@@H]2[C@H](NC(=O)[C@H](N)c3ccc(O)cc3)C(=O)N2[C@H]1C(=O)O | MIC | 350 µM |

I would be grateful if you could share the reported MIC for CO/N=C(\C(=O)N[C@@H]1C(=O)N2C(C(=O)O)=C(COC(C)=O)CS[C@H]12)c1csc(N)n1 [CTX, Cefotaxime, reference compound] .
280 µM

###

This listing pairs compounds with measured EC90.
Tested on: E. coli MG1655 (CGSC #6300)
Test details: Antibacterial resazurin assay, laboratory strain
Settings: Escherichia coli, MG1655, 18 h, read-out: Eco EC90
Write the number in µM without appending the unit.

| Sample smiles | Uom | EC90 |
| --- | --- | --- |
| N=C(N)Nc1ccc(-c2ccc(C(=O)N3CCc4cc(NC(=N)N)ccc43)o2)cc1 | µM | 4.3 |

So what EC90 did `N=C(N)Nc1ccc(-c2ccc(-c3ccc(NC(=N)N)cc3C(F)(F)F)o2)c(C(F)(F)F)c1` get with E. coli MG1655 (CGSC #6300)?
59.1

###

This listing pairs compounds with measured log10 of EC90.
Tested on: E. coli (CCUG #17620/ ATCC #25922)
Test details: Antibacterial activity against isolates (Omnilog, Biolog redox dye)
Assay type: cell-based, Escherichia coli
Settings: Escherichia coli; ca-MH broth, 24 h, 37 °C
Could you please treat all values as log10 of EC90 in µM?

# count of solved cases: 8
| Compound | log10 of EC90 |
| --- | --- |
| COc1cc(NC(=N)N)ccc1-c1ccc(-c2ccc(NC(=N)N)cc2OC)o1 [Compound 6] | 0.88 |
| COC(=O)c1cc(NC(=N)N)ccc1-c1ccc(-c2ccc(NC(=N)N)cc2C(=O)OC)o1 [Compound 8] | 0.91 |
| N=C(N)NCc1ccc(-c2ccc(-c3ccc(CNC(=N)N)cc3)o2)cc1 [Compound 10, 2,5-Bis(4-guanidinomethylphenyl)furan] | 2.25 |
| N=C(N)Nc1ccc(-c2ccc(-c3ccc(NC(=N)N)cc3Cl)o2)c(Cl)c1 [Compound 1, 2,5-Bis(2-chloro-4-guanidinophenyl)furan] | 0.80 |
| N=C(N)Nc1ccc(-c2ccc(-c3ccc(NC(=N)N)cc3)o2)cc1 [Compound 3] | 0.34 |
| N=C(N)Nc1ccc(-c2ccc(C(=O)N3CCc4cc(NC(=N)N)ccc43)o2)cc1 [Compound 17] | 1.38 |
| Cc1cc(NC(=N)N)ccc1-c1ccc(-c2ccc(NC(=N)N)cc2C)o1 [Compound 4, 2,5-Bis(4-guanidino-2-methylphenyl)furan] | 1.26 |
| N=C(N)Nc1ccc(-c2ccc(C(=O)N3CCc4cc(NC(=N)N)ccc43)o2)c(Cl)c1 [Compound 16] | 1.29 |

I would be grateful if you could share the reported log10 of EC90 for CO/N=C(\C(=O)N[C@@H]1C(=O)N2C(C(=O)O)=C(COC(C)=O)CS[C@H]12)c1csc(N)n1 [CTX, Cefotaxime, reference compound] .
-0.52

###

Tested on: E. coli MG1655 (CGSC #6300)
Test details: Antibacterial resazurin assay, laboratory strain
Settings: Escherichia coli, MG1655, 18 h, read-out: Eco EC90
This listing pairs compounds with measured EC90.
Write the number in µM without appending the unit.

| Compound | EC90 (µM) |
| --- | --- |
| COC(=O)c1cc(NC(=N)N)ccc1-c1ccc(-c2ccc(NC(=N)N)cc2C(=O)OC)o1 [Compound 8] | 129 |
| N#Cc1cc(NC(=N)N)ccc1-c1ccc(-c2ccc(NC(=N)N)cc2C#N)o1 [Compound 7, 2,5-Bis(2-cyano-4-guanidinophenyl)furan] | 350 |

I would be grateful if you could share the reported EC90 for N=C(N)Nc1ccc2c(c1)CCN2C(=O)c1ccc(-c2ccccc2Cl)o1 [Compound 19] .
2.5

I would be grateful if you could share the reported EC90 for N=C(N)Nc1ccc2c(c1)CCN2C(=O)c1ccc(-c2ccc(NC(=N)N)cc2C(F)(F)F)o1 [Compound 18] .
58.3

I would be grateful if you could share the reported EC90 for Cc1cc(NC(=N)N)ccc1-c1ccc(-c2ccc(NC(=N)N)cc2C)o1 [Compound 4, 2,5-Bis(4-guanidino-2-methylphenyl)furan] .
80.8

I would be grateful if you could share the reported EC90 for N=C(N)Nc1ccc(-c2ccc(C(=O)N3CCc4cc(NC(=N)N)ccc43)o2)c(Cl)c1 [Compound 16] .
19

###

This listing pairs compounds with measured EC50 at 24 h.
Test details: Cytotoxicity assay (PrestoBlue) MCF-7
Assay type: cell-based
Settings: human, MCF-7 cells (breast cancer cell line), 24 h incubation

| Sample smiles | EC50 at 24 h |
| --- | --- |
| N=C(N)Nc1ccc2c(c1)CCN2C(=O)c1ccc(-c2ccccc2Cl)o1 | 26.4 µM |
| N=C(N)Nc1ccc2c(c1)CCN2C(=O)c1ccc(-c2ccc(NC(=N)N)cc2C(F)(F)F)o1 | 123 µM |
| N=C(N)Nc1ccc(-c2ccc(C(=O)N3CCc4cc(NC(=N)N)ccc43)o2)c(Cl)c1 | 177 µM |

I would be grateful if you could share the reported EC50 at 24 h for `Nc1c(Nc2ccc(-c3ccc(-c4ccc(Nc5c(N)c(=O)c5=O)cc4)o3)cc2)c(=O)c1=O` .
> 1000 µM

I would be grateful if you could share the reported EC50 at 24 h for `N=C(N)NCc1ccc(-c2ccc(-c3ccc(CNC(=N)N)cc3)o2)cc1` .
48.6 µM

I would be grateful if you could share the reported EC50 at 24 h for `N=C(N)Nc1ccc(-c2ccc(-c3ccc(NC(=N)N)cc3Cl)o2)c(Cl)c1` .
34.4 µM

I would be grateful if you could share the reported EC50 at 24 h for `COC(=O)c1cc(NC(=N)N)ccc1-c1ccc(-c2ccc(NC(=N)N)cc2C(=O)OC)o1` .
81.6 µM
